Test system: anti-desmoglein-3 scFv antibody binding to human DSG3
assay_info: blockers of pathogenic pemphigus antibody–desmoglein-3 binding – biochemical, validation compound set, bead-based, flow cytometry, pilot screen (AID 588368);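 also: signal is the median channel fluorescence of bead-bound GFP antibody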
measurement_setup: Protein G beads, DSG3-Fc, scFv-GFP binding, at 10 µM, active compounds read low
experimental_readout: binding (% of control) (%)
Could you give me the number in %? Just the number is fine.

# count of solved cases: 5
>>> numeric_readout("CCC(C)NCCOCCOc1ccc(Cl)cc1Br (stereo not given)")
95.8
>>> numeric_readout("Cc1ccc(S(=O)(=O)NC(C(=O)Oc2ccc3c(C(F)(F)F)cc(=O)oc3c2)c2ccccc2)cc1 (stereo not given)")
92.6
>>> numeric_readout("Cc1ccc(OCCCCn2ccnc2C)c(C)c1")
106
>>> numeric_readout("CSCC[C@H](NC(=O)Nc1ccc(C)cc1C)C(=O)O")
94.5
>>> numeric_readout("O=C(N/N=C/c1ccc([N+](=O)[O-])o1)c1ccc(O)cc1")
110

Exercise: Name the recorded binding (% of control) of the item Cn1c(=O)c2c(ncn2CCO)n(C)c1=O in your answer.
Key: 106

Exercise: Name the recorded binding (% of control) of the item CC(=O)OCC(=O)[C@@]1(O)CC[C@H]2[C@@H]3CCC4=CC(=O)CC[C@]4(C)[C@H]3[C@@H](O)C[C@@]21C in your answer.
Key: 98.4

Exercise: Name the recorded binding (% of control) of the item CCCC(=O)O[C@]1(C(=O)CCl)[C@@H](C)C[C@H]2[C@@H]3CCC4=CC(=O)C=C[C@]4(C)[C@@]3(F)C(=O)C[C@@]21C in your answer.
Key: 94.1

Exercise: Name the recorded binding (% of control) of the item Cc1ccc(S(=O)(=O)NC(=O)NN2CCCCCC2)cc1 in your answer.
Key: 99.7

Exercise: Name the recorded binding (% of control) of the item COc1ccc2c(c1)[N+](C)(C)C(C)(C)C=C2C in your answer.
Key: 95.6

----------
assay_info: rapamycin-like changes in RPL19A-GFP expression – cell-based, S. cerevisiae, multiplex flow cytometry, primary screen (AID 1862);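 also: lower values mimic rapamycin by blocking the RPL19A rise seen in DMSO cells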
measurement_setup: S. cerevisiae RPL19A-GFP strain, flow cytometry fluorescence, 3 h; at 10 µM; active compounds read low
Inconclusive results are not listed.
experimental_readout: percent of DMSO control GFP (%)
Could you give me the number in %? Just the number is fine.

# count of solved cases: 5
>>> numeric_readout("CCOC(=O)C1=C[C@]2(CC)CCCN3CCc4c(n1c1ccccc41)[C@@H]32")
98.4
>>> numeric_readout("COc1ccc(C2=C(CN(C)C)C(c3ccccc3)c3ccccc3O2)cc1 (stereo unspecified)")
102
>>> numeric_readout("CC(=O)OC1c2c(ccc3ccc(=O)oc23)OC(C)(C)C1OC(=O)CC(C)C (stereo unspecified)")
103
>>> numeric_readout("Cc1cccc(Oc2coc3cc(OC(=O)c4cncc(Br)c4)ccc3c2=O)c1")
98
>>> numeric_readout("CC(=O)OCC(=O)[C@@]1(O)CC[C@H]2[C@@H]3CCC4=CC(=O)C=C[C@]4(C)[C@H]3[C@@H](O)C[C@@]21C")
90.2

Exercise: Name the recorded percent of DMSO control GFP of the item CC(=O)OCC#CCSc1nc2ccccc2n1C in your answer.
Key: 97.6

Exercise: Name the recorded percent of DMSO control GFP of the item Cc1cc(C)cc(Nc2nc3c([nH]2)c(=O)n(C)c(=O)n3C)c1 in your answer.
Key: 102

Exercise: Name the recorded percent of DMSO control GFP of the item CSCC[C@H](NC(=O)NC1CCCC1)C(=O)O in your answer.
Key: 89.8

Exercise: Name the recorded percent of DMSO control GFP of the item O=C1CC2(CCCC2)CC(=O)N1CCCCN1CCN(c2ncccn2)CC1 in your answer.
Key: 102

Exercise: Name the recorded percent of DMSO control GFP of the item Cc1ccc(CN2CCN(CCCc3ccccc3)CC2CCO)cc1 (stereo unspecified) in your answer.
Key: 103

Exercise: Name the recorded percent of DMSO control GFP of the item COc1cccc2c(=O)c3ccccc3oc12 in your answer.
Key: 93.9
